From: ChEMBL document CHEMBL1201862

Test system: RPMI-8226
experiment: NCI tumour cell line growth inhibition, 48 h
The source made the active and inactive calls. Rule as the data show it: active = GI50 up to about 1.1 µM and inactive = higher.
Mark one answer only. Choices: Y (active), N (inactive)

Outcome logged for COc1cc(Br)cc2cc(-c3cn4c(n3)sc3ccccc34)c(=O)oc12 in this assay: N

Outcome logged for COc1ccc(C(=O)c2ccc(-n3c4ccccc4c4ccc5c(c43)C(=O)C=CC5=O)cc2)cc1 in this assay: Y

Outcome logged for COC(=O)[C@H]1ON2O[C@H](OC3CCCC[C@@H]3c3ccccc3)C[C@@H]3CC[C@H]1[C@@]32C (stereo partly specified) in this assay: N

Outcome logged for Clc1ccc(Cc2nc3ccccc3s2)c(Cl)c1 in this assay: N

Outcome logged for Cc1cccc(CP(Cc2cccc(C)c2)CC2(Cp3c4ccccc4c4ccccc43)COC2)c1 in this assay: Y

Outcome logged for COc1ccc(-c2cn3ccsc3n2)cc1 in this assay: N

Outcome logged for O=S(=O)(O)c1cc(/N=N/c2c(O)ccc3ccccc23)c2c(S(=O)(=O)O)cccc2c1 in this assay: N

Outcome logged for COC(=O)CCC(=O)N1Cc2cc(C)ccc2N(C(=O)CCC(=O)OC)Cc2cc(C)ccc21 in this assay: N

Outcome logged for CC#Cc1c(O)c2c(c(O)c1C#CC)C(=O)c1ccccc1C2=O in this assay: N

Outcome logged for CC(C)(Cl)C(Cl)CC/C(CBr)=C(\Cl)CCl (stereo unspecified) in this assay: N

Outcome logged for C=C1C(=O)O[C@@H]2C(=O)[C@@H](C)[C@@H]3C=CC(=O)[C@@]3(C)[C@@H](OC(=O)/C(C)=C\C)[C@H]12 [MULTISTATIN] in this assay: Y

Outcome logged for FC(F)(F)P1C2C=CC(CC2)C1(F)F (stereo unspecified) in this assay: N

Outcome logged for O=C(CC(=O)Nc1ccccc1O)Nc1ccccc1O in this assay: N

Outcome logged for COc1cccc(C2c3cc4c(cc3OC(N3CCCC3)C2C)OCO4)c1O (stereo unspecified) in this assay: N

Outcome logged for COc1ccc(-c2cc(C(=O)Nc3cc(C(F)(F)F)cc(C(F)(F)F)c3)c3ccccc3n2)cc1 in this assay: N

Outcome logged for CC1=CC(=O)C(=O)C2=C1OC1(C2)C(C)CCC2C3(C)CCC(O)C(C)(C)C3CCC21C (stereo unspecified) in this assay: N

Outcome logged for Cn1c(=O)c2c(ncn2CCCCOc2ccc3c(c2)[n+]([O-])nc(N)[n+]3[O-])n(C)c1=O in this assay: N

Outcome logged for O[C@H]1[C@H](O)[C@@H](O)[C@H](O)[C@@H](O)[C@H]1O [INOSITOL] in this assay: N

Outcome logged for CS(=O)(=O)OCCN1CCN(C(=O)c2cccc3c(Nc4ccc(S(N)(=O)=O)cc4)c4ccccc4nc23)CC1 in this assay: N

Outcome logged for Cc1c(NC(=O)C(C)(C)Br)c(=O)oc2c(C)c3occc(=O)c3cc12 in this assay: N

Outcome logged for C=C(C)[C@H]1C=C[C@@H](OC(=O)c2cccnc2)[C@@]23CO[C@@](C)([C@H](OC(=O)c4cccnc4)[C@@]4(OC(C)=O)C[C@H](C)[C@H](OCCC)[C@@H]4[C@H]2OC(C)=O)[C@H]13 in this assay: N

---

Tested on: U-251
experiment: NCI tumour cell line growth inhibition, 48 h
Activity calls are given as the source filed them. Rule as the data show it: active = GI50 up to about 1.1 µM and inactive = higher.
assayMetric: GI50

Looking up COC(=O)C1=C(c2ccc3c(c2)OCO3)OC(c2cc(OC)c(OC)c(OC)c2)C1 (stereo not given) , I found its GI50 recorded as 2.34 µM (inactive)

Looking up CC(C)OCN1COCN/C1=N/C#N , I found its GI50 recorded as 42.2 µM (inactive)

Looking up Nc1ccc2c(O)cc(O)nc2n1 , I found its GI50 recorded as > 100 µM (inactive)

Looking up Cc1ccc(N2C3=C(CC4=C2CC(C)(C)CC4=O)C(=O)CC(C)(C)C3)cc1 , I found its GI50 recorded as > 100 µM (inactive)

Looking up [O-][n+]1onc2c1-c1nonc1CC2 , I found its GI50 recorded as 31.9 µM (inactive)

Looking up CC(C)(Cl)C(Cl)CC/C(CBr)=C(\Cl)CCl (stereo not given) , I found its GI50 recorded as 4.24 µM (inactive)

Looking up C=C1CC[C@@H](Br)C(C)(C)[C@]12CCC(C)(O)C(Cl)C2 (stereo not given in full) , I found its GI50 recorded as 16.2 µM (inactive)

Looking up CCN1CN(c2ccccc2)C2(CCN(CCCSc3ccc(F)cc3)CC2)C1=O , I found its GI50 recorded as > 10 µM (inactive)

Looking up COC1=CC2=NCCc3n[nH]c(c32)C1=O , I found its GI50 recorded as 16.7 µM (inactive)

Looking up CO[C@@H]1[C@H](O)CC[C@]2(CO2)[C@H]1[C@@]1(C)O[C@@H]1CC=C(C)C , I found its GI50 recorded as 2.29 µM (inactive)

Looking up Cc1cc2c([nH]c3ccccc32)c(O)c1-c1c(C)cc2c([nH]c3ccccc32)c1O , I found its GI50 recorded as 11.5 µM (inactive)

Looking up CNC(=O)NS(=O)(=O)c1ccc(C)cc1.NS(=O)O , I found its GI50 recorded as > 100 µM (inactive)

Looking up CCOC(=O)/C=C1/C(CCCOCc2ccccc2)C2CCCC23CC2(CCN13)OCCO2 (stereo not given) , I found its GI50 recorded as 20.1 µM (inactive)

Looking up O=S1(=O)OCCOS(=O)(=O)C1Cc1cccc2ccccc12 , I found its GI50 recorded as 18.2 µM (inactive)

Looking up CSCCCNC(=O)c1csc(-c2csc(CCNC(=O)CNC(=O)CNC(=O)CNC(=O)OC(C)(C)C)n2)n1 , I found its GI50 recorded as > 100 µM (inactive)

Looking up CC(=O)OCC1OC(SC2=NC(=O)/C(=C/c3ccccc3)S2)C(OC(C)=O)C(OC(C)=O)C1OC(C)=O (stereo not given) , I found its GI50 recorded as 30.9 µM (inactive)

Looking up COC(=O)[C@H]1ON2O[C@H](OC3CCCC[C@@H]3c3ccccc3)C[C@@H]3CC[C@H]1[C@@]32C (stereo not given in full) , I found its GI50 recorded as 77.6 µM (inactive)

Looking up Cc1ccc(S(=O)(=O)NC(=O)NNc2ccc(F)cc2)cc1 , I found its GI50 recorded as > 100 µM (inactive)

Looking up Nc1nc(S)nc(C(=O)Nc2nccs2)c1-c1ccccc1 , I found its GI50 recorded as > 100 µM (inactive)

Looking up O=C1CCCCCC1CC(Sc1ccccc1)Sc1ccccc1 (stereo not given) , I found its GI50 recorded as > 100 µM (inactive)

Looking up COc1ccc2nc3c(C)cc4ccccc4n3c2c1 , I found its GI50 recorded as 44.7 µM (inactive)

Looking up CCCc1cc2c(cc1O)CC[C@@H]1[C@@H]2CC[C@]2(C)[C@@H](O)CC[C@@H]12 , I found its GI50 recorded as 6.62 µM (inactive)

Looking up CC(=O)OC1CC2C(=O)C(=O)C1(C)C2(C)C (stereo not given) , I found its GI50 recorded as > 100 µM (inactive)

Looking up CN(C)CC/C(=N\Nc1c(Cl)cccc1Cl)c1ccccc1 , I found its GI50 recorded as 16.8 µM (inactive)

Looking up O=C1/C(=N\O)C2CCC1C2 (stereo not given) , I found its GI50 recorded as > 100 µM (inactive)

Looking up C=CSCCC(N)C(=O)O (stereo not given) , I found its GI50 recorded as > 100 µM (inactive)

Looking up C1CSCCSCCS1 , I found its GI50 recorded as > 100 µM (inactive)

Looking up CN(C)/C=N/C1CCC(C(C)(C)C)CC1 (stereo not given) , I found its GI50 recorded as 16.1 µM (inactive)

Looking up N/C(S)=N/N=C/c1ncccc1O , I found its GI50 recorded as 1.73 µM (inactive)

Looking up N#C/C(=C\c1ccc(Cl)cc1)c1nc2ccccc2c(=O)[nH]1 , I found its GI50 recorded as 52.5 µM (inactive)

Looking up CCOC(=O)C(=O)Nc1nc2c(s1)C(=O)c1ccccc1C2=O , I found its GI50 recorded as 16.6 µM (inactive)

Looking up CC(=O)CC(=O)Nn1c(-c2cccs2)nc2ccc(I)cc2c1=O , I found its GI50 recorded as > 56 µM (inactive)

Looking up CS(=O)(=O)OCCCOS(C)(=O)=O , I found its GI50 recorded as > 100 µM (inactive)

Looking up CCN(CC)Cc1c(/C=C\c2cc(OC)c(OC)c(OC)c2)ccc(OC)c1O , I found its GI50 recorded as 2.87 µM (inactive)

Looking up CCCC1(CCC)c2cc(/C=N\O)ccc2-c2ccc(-c3ccc(C(C)(C)C)cc3)cc21 , I found its GI50 recorded as > 10 µM (inactive)

Looking up NC(=O)C#CC#CC#CCO , I found its GI50 recorded as 2 µM (inactive)

Looking up O=C1c2ccccc2C(=O)N1C/C=N/NS(=O)(=O)c1ccc(Br)cc1 , I found its GI50 recorded as > 100 µM (inactive)

Looking up c1cnc2c3[nH]cc4[nH]c5ccccc5c4c-3nc2c1 , I found its GI50 recorded as 75.3 µM (inactive)

Looking up COC(=O)c1ccc(NCc2cc(O)c3ccccc3c2O)cc1 , I found its GI50 recorded as 16.7 µM (inactive)

Looking up CCCCN/C(=N/C#N)NCc1ccccc1 , I found its GI50 recorded as > 100 µM (inactive)

Looking up O=C(CN1CCN(C(=O)OCc2ccccc2)CCN(CC(=O)N2CCCCC2)CCN(C(=O)OCc2ccccc2)CC1)N1CCCCC1 , I found its GI50 recorded as 16.5 µM (inactive)

Looking up COc1cccc(-c2nc(-c3cnccn3)n(C/C=C/c3ccccc3)n2)c1 , I found its GI50 recorded as > 10 µM (inactive)

Looking up N#Cc1c(N)c2c(c(-c3ccccc3)c1-c1ccccc1)C(=O)N(NC(=S)Nc1ccccc1)C2=O , I found its GI50 recorded as > 100 µM (inactive)

Looking up CC(C)CC1C(=O)NCCC(NC(=O)C(Cc2ccc(OC(C)(C)C)cc2)NC(=O)OC(C)(C)C)C(=O)NC(Cc2ccccc2)C(=O)NC(Cc2ccccc2)NC1=O (stereo not given) , I found its GI50 recorded as 12.8 µM (inactive)

Looking up CC(C)(C)C(O)CC(O)(C(F)(F)F)C(F)(F)F (stereo not given) , I found its GI50 recorded as > 100 µM (inactive)
